For each of the compounds below, state its Percent Effect.
TARGET DESC: Sialic acid-binding Ig-like lectin 9 (Homo sapiens)
PROTOCOL: Hs-Siglec9 ALPHAscreen SOP 20170721
Parameters: scale not given: direction of the effect not stated beside the values
RUN CONDITIONS: 10 µM

Input line: I'd like to know its Percent Effect. The compound in question is Cc1ccc(NC2CCN(C(=O)CN(C)C3CC3)CC2)nn1
Output line: 16.3%

Input line: I'd like to know its Percent Effect. The compound in question is O=C(c1ccccn1)N1CCc2c(nc(N3CCCC3)[nH]c2=O)C1
Output line: 26.1%

Input line: I'd like to know its Percent Effect. The compound in question is CCOC(=O)CCC(=O)N1CCC(Oc2ccc(C(F)(F)F)cn2)CC1
Output line: 13.1%

Input line: I'd like to know its Percent Effect. The compound in question is Cc1cnc(CN2CCCC(c3cc(C(N)=O)[nH]n3)C2)o1 (stereo not drawn)
Output line: -4.2%

Input line: I'd like to know its Percent Effect. The compound in question is Cc1ccc(C(=O)N2CCN(C(=O)NC(C)Cn3ccnc3)CC2)o1 (stereo not drawn)
Output line: 13.1%

Input line: I'd like to know its Percent Effect. The compound in question is COc1ccc(CN2CCCC3(CCN(c4ccsc4)C3=O)C2)cc1 (stereo not drawn)
Output line: 2.16%

Input line: I'd like to know its Percent Effect. The compound in question is Cc1nnc(N2CC[C@H]3C[C@H](C(=O)N4CCOCC4)O[C@H]3C2)s1
Output line: 2.05%

Input line: I'd like to know its Percent Effect. The compound in question is Cc1nc(C2CCCN(C(=O)c3cnn(C(C)(C)C)c3)C2)no1 (stereo not drawn)
Output line: -0.567%

Input line: I'd like to know its Percent Effect. The compound in question is CCNc1cc2c(nn1)CCN(C(=O)c1ccnc(N(C)C)c1)C2
Output line: 4.93%

Input line: I'd like to know its Percent Effect. The compound in question is O=S(=O)(Cc1ccccc1)NCC1CCN(c2cnccn2)CC1
Output line: -3.08%

Input line: I'd like to know its Percent Effect. The compound in question is COCC1CC2(CCN(C(=O)c3cc(C)oc3C)CC2)CN1C(C)C (stereo not drawn)
Output line: -4.84%

Input line: I'd like to know its Percent Effect. The compound in question is Cn1ccnc1CN1CCCN(C(=O)c2ccc3c(c2)COC3)CC1
Output line: -6.65%

Input line: I'd like to know its Percent Effect. The compound in question is Cc1nc(CN2CCC(C(=O)O)(n3ccc(-c4ccco4)n3)CC2)co1
Output line: 4.25%

Input line: I'd like to know its Percent Effect. The compound in question is O=C(c1cccnc1N1CCOCC1)N1CCCC(n2ccnc2)C1 (stereo not drawn)
Output line: 3.27%

Input line: I'd like to know its Percent Effect. The compound in question is O=C(O)c1nnn(-c2ccc(F)c(F)c2)c1-c1ccncc1
Output line: -2.68%

Input line: I'd like to know its Percent Effect. The compound in question is CCCOc1ccc(CNC2CCCc3c2cnn3CC)cc1OC (stereo not drawn)
Output line: 11%

Input line: I'd like to know its Percent Effect. The compound in question is Cc1ccc(OCCCNC(=O)NC(C)c2nncn2C)cc1 (stereo not drawn)
Output line: -5.15%

Input line: I'd like to know its Percent Effect. The compound in question is Cn1nnc2c1C(COCc1ccccn1)CN(C(=O)c1cccs1)C2 (stereo not drawn)
Output line: 5.59%

Input line: I'd like to know its Percent Effect. The compound in question is CC(Cn1cccn1)NC(=O)Nc1ccc(F)cc1 (stereo not drawn)
Output line: -4.43%

Input line: I'd like to know its Percent Effect. The compound in question is COCC1CCN(c2cc(C3CN(C)CCO3)nc(C)n2)CC1 (stereo not drawn)
Output line: -0.404%

Input line: I'd like to know its Percent Effect. The compound in question is O=C1CCC2(CCN(Cc3cc(F)cc(F)c3)CC2)CN1CCO
Output line: 0.944%

Input line: I'd like to know its Percent Effect. The compound in question is COc1cc(C)sc1C(=O)N1CC(c2cccnc2)C1
Output line: -2.39%

Input line: I'd like to know its Percent Effect. The compound in question is O=C(c1cccs1)N1CCC(n2nc(-c3ccco3)ccc2=O)CC1
Output line: 14%

Input line: I'd like to know its Percent Effect. The compound in question is Cc1csc(N2CCN(C(=O)CCNc3ncccn3)CC2)n1
Output line: -1.96%

Input line: I'd like to know its Percent Effect. The compound in question is CN(C(=O)Cn1nc(-c2cccs2)ccc1=O)C1CCS(=O)(=O)C1 (stereo not drawn)
Output line: -0.941%

Input line: I'd like to know its Percent Effect. The compound in question is Cc1ccc(C(=O)N2Cc3ccccc3C2)cc1N1CCNC1=O
Output line: 9.14%

Input line: I'd like to know its Percent Effect. The compound in question is Cc1nc2ccccc2nc1CN1CCCC1c1c(C)nn(C)c1C (stereo not drawn)
Output line: 6.81%

Input line: I'd like to know its Percent Effect. The compound in question is O=C(c1ccc[nH]1)N1CCn2cc(Cn3cncn3)nc2C1
Output line: -2.2%

Input line: I'd like to know its Percent Effect. The compound in question is N#Cc1cccnc1NCCNC(=O)N1CCCC(C(F)(F)F)C1 (stereo not drawn)
Output line: 11.1%

Input line: I'd like to know its Percent Effect. The compound in question is CSc1ccc(S(=O)(=O)N2CCCCC2CCNC(C)=O)cc1 (stereo not drawn)
Output line: 4.24%

Input line: I'd like to know its Percent Effect. The compound in question is CC(C)S(=O)(=O)NCC1CCCN(C(=O)c2cccnc2)C1 (stereo not drawn)
Output line: -2.93%

Input line: I'd like to know its Percent Effect. The compound in question is O=S(=O)(Cc1ccccc1F)NCCCN1CCCCC1
Output line: 18.2%

Input line: I'd like to know its Percent Effect. The compound in question is O=C(c1cnccn1)N1CCN2C[C@H](OCc3ccccn3)C[C@H]2C1
Output line: 7.25%

Input line: I'd like to know its Percent Effect. The compound in question is CC1CCN(CCCNS(=O)(=O)c2cccc(F)c2)CC1
Output line: 5.46%

Input line: I'd like to know its Percent Effect. The compound in question is CC(O)CN1CCN(C(=O)c2cc3ccccc3[nH]c2=O)CC1 (stereo not drawn)
Output line: 10.3%

Input line: I'd like to know its Percent Effect. The compound in question is CCn1c(CN2CCC(O)(C(=O)OC)CC2)nc2c(F)cccc21
Output line: 0.565%

Input line: I'd like to know its Percent Effect. The compound in question is CC(=O)N1CCN(C(=O)CCCc2nc(C(C)C)no2)CC1
Output line: -11.8%

Input line: I'd like to know its Percent Effect. The compound in question is CC(C)NC(=O)N1CCC2(CC(C(=O)NCc3cccnc3)=NO2)C1 (stereo not drawn)
Output line: 10.3%

Input line: I'd like to know its Percent Effect. The compound in question is CCc1cc(N[C@H]2CC[C@H](O)CC2)n2nc(C)c(C)c2n1
Output line: -3.49%

Input line: I'd like to know its Percent Effect. The compound in question is CC(c1ccccc1)n1c(SCC(=O)O)nnc1-c1ccccc1Cl (stereo not drawn)
Output line: 28.7%

Input line: I'd like to know its Percent Effect. The compound in question is CCOc1cc(C)nc(N2CCN(C(=O)CC)CC2)n1
Output line: 10.3%

Input line: I'd like to know its Percent Effect. The compound in question is COc1ccc(OC)c(CN2CCCCCC2c2cccs2)c1 (stereo not drawn)
Output line: -14.1%

Input line: I'd like to know its Percent Effect. The compound in question is c1ccc(Cn2ccnc2CN2CCOC(Cn3cccn3)C2)cc1 (stereo not drawn)
Output line: 2.25%

Input line: I'd like to know its Percent Effect. The compound in question is O=C(Nc1cnn(CCN2CCOCC2)c1)c1cc(F)ccc1F
Output line: 20.5%

Input line: I'd like to know its Percent Effect. The compound in question is CCC(NC(=O)C1CCN(S(C)(=O)=O)CC1)c1ccc(OC)c(C)c1 (stereo not drawn)
Output line: 27.4%

Input line: I'd like to know its Percent Effect. The compound in question is OCC1CCCN1c1cc(NCc2ccc(Cl)s2)ncn1 (stereo not drawn)
Output line: -2.18%

Input line: I'd like to know its Percent Effect. The compound in question is Cc1ccc(NC(=O)Cn2cc(I)cn2)cc1
Output line: 3.22%

Input line: I'd like to know its Percent Effect. The compound in question is Fc1cnc(N2C[C@H]3CCC[C@@]3(COc3ccccn3)C2)nc1
Output line: 4.78%
